Assay system: HLA-A*02:01 (Homo sapiens, UniProt P04439, D140Y/D185E/D98H/E176V/E277Q/G131W/G231S/I119V/I121R/I166T/I218V/L300P/L318F/N151K/N90K/P208A/P217A/Q86G/Q94H/R138H/R169H/T345S)
Protocol details: MHC binding assay (UV-ligand exchange, β2m ELISA, peptide exchange yield)
Experimental context: MHC class I binding score; binding to HLA-A*02:01 ranged by peptide exchange yield (UV-ligand exchange, β2m ELISA)

Substance | Peptide exchange
119 (FLYIGDIVSL; listed as Homo sapiens) [compound 119] | ″++++″ (≧75% = ++++)
611 (YLLDDGTLVV; listed as Homo sapiens) [compound 611] | ″++++″ (≧75% = ++++)
384 (ILFANPNIFV; listed as Homo sapiens) [compound 384] | ″+++″ (≧50% = +++)
288 (NLINEINGV; listed as Homo sapiens) [compound 288] | ″+++″ (≧50% = +++)
10 (FLATFPLAAV; listed as Homo sapiens) [compound 10] | ″++++″ (≧75% = ++++)
